System: KM12
Experiment notes: NCI tumour cell line growth inhibition, 48 h
The source made the active and inactive calls. Rule as the data show it: active = GI50 up to about 1.1 µM and inactive = higher.
Outcome codes: active, inactive

| Compound | Experimental target | Assigned class |
| --- | --- | --- |
| CC(=O)Oc1ccccc1 [ACETIC ACID PHENYL ESTER] | KM12 | inactive |
| COCN1C(=O)[C@@H]2CCCN2C(=O)c2ccc([N+](=O)[O-])cc21 | KM12 | inactive |
| CN1CCN(CCCCN2c3ccccc3Sc3cc(N=[N+]=[N-])ccc32)CC1 | KM12 | inactive |
| O=C(N/N=C(\C1=Nc2ccc(Cl)cc2NC1O)C(O)/C=C/c1ccccc1)c1ccncc1 (stereo unspecified) | KM12 | inactive |
| CCOC(=O)c1cc(Sc2ccc(N)c(C(=O)OCC)c2)ccc1N | KM12 | inactive |
| CN(C)c1cccc(OC(=O)NCCCl)c1 | KM12 | inactive |
| O=C(NC(Nc1ccc(F)cc1)(C(F)(F)F)C(F)(F)F)C(C(F)(F)F)C(F)(F)F | KM12 | active |
| CCCCCCCCCCCCCCCCCc1cccc(OCOCCOC)c1C(=O)O | KM12 | inactive |
| C[Si](C)(C)[C@@]1([Se]c2ccccc2)CC[C@@H]1C(=O)c1ccccc1 | KM12 | inactive |
| O=c1c2ccc3cccc4c(=O)cc(c5ccccc15)-c2c34 | KM12 | inactive |
| Cn1c2cccc3nnc4cccc(c4c32)n1C | KM12 | inactive |

* * *

Test system: LOX IMVI
Experiment notes: NCI tumour cell line growth inhibition, 48 h
Activity calls are given as the source filed them. No stated cut-off is given here; in the data, active = GI50 up to about 1.1 µM and inactive = higher.

| Compound | GI50 |
| --- | --- |
| CN1C(c2ccccc2)CC(=Nc2ccccc2)CC1c1ccccc1 (stereo unspecified) | 4.48 µM (inactive) |
| CCn1c2ccccc2n2c(=O)c3c(c(C#N)c12)CCCC3 | > 100 µM (inactive) |
| C=C(Cl)[C@@](Cl)(CBr)CC[C@@H](Br)C(C)(C)Cl | 13.2 µM (inactive) |
| O=C1c2cc(-c3ccccc3)cnc2S(=O)(=O)N1c1ccc(Br)cc1 | 41.1 µM (inactive) |
| CNC1C(O)C(OC2C(N)CC(N)C(OC3OC(C(C)O)C(O)C(O)C3N)C2O)OCC1(C)O (stereo unspecified) | > 100 µM (inactive) |
| O=c1cc(/N=N/c2ccc(O)cc2)[nH]c(=O)[nH]1 | 79.6 µM (inactive) |

* * *

Each entry below carries its reported GI50.
Test system: PC-3
Experiment notes: NCI tumour cell line growth inhibition, 48 h
Activity calls are given as the source filed them. No stated cut-off is given here; in the data, active = GI50 up to about 1.1 µM and inactive = higher.

| Compound | GI50 |
| --- | --- |
| COc1ccc(C2NC3=C(CCCC3)C3(C#N)C(=O)N=C(N)C23C#N)cc1 (stereo not drawn) | > 100 µM (inactive) |
| O=C1C2C3C4C1C1C2[C@H](OCc2ccccc2)C3C1[C@H]4OCc1ccccc1 (stereo partly drawn) | 36.1 µM (inactive) |
| O=C1C=CC(=O)c2c(O)c(N3CCN(c4ccccn4)CC3)cc(O)c21 | 16.2 µM (inactive) |
| CCc1n[nH]c(=O)n1/N=C(\C)c1ccc([N+](=O)[O-])cc1 | > 100 µM (inactive) |
| C=C1C(=O)C2(C)OC2(C)C1C(=O)O (stereo not drawn) | > 100 µM (inactive) |
| CCCCCCCCCCCCCCCCCCNc1nc(=O)n(C2CC(O)C(COP(=O)(O)OCC3OC(n4ccc(N)nc4=O)C(O)C3O)O2)cc1F (stereo not drawn) | 28.6 µM (inactive) |
| N#Cc1c(-c2ccccc2)cc(-c2ccc(Cl)cc2)[nH]c1=S | 27.1 µM (inactive) |
| CCC(=O)/C(=C\I)c1ccccc1 | 3.01 µM (inactive) |
| NNC1=NC(=O)NC(=O)C1 | > 100 µM (inactive) |
| CC(C)OC(=O)c1ccc(NCC2=CC(=O)C=CC2=O)cc1Cl | 8.3 µM (inactive) |
| C=CC1(c2ccc(OC)cc2)OCCCO1 | > 100 µM (inactive) |
| Cc1nc(N)c(N2CCN(S(=O)(=O)N(Cc3ccccc3)Cc3ccccc3)CC2)c(O)n1 | 20.4 µM (inactive) |
| CC1=Cc2ccc(C)cc2C(=O)C1=O | 15.8 µM (inactive) |
| CCn1c2ccccc2n2c(=O)c3c(c(C#N)c12)CCCC3 | > 100 µM (inactive) |
| C=CCN1C(=O)CC2[C@@H]3CCc4cc(O)ccc4C3CC[C@]2(C)C1=O (stereo partly drawn) | > 10 µM (inactive) |
| CCOC(=O)/C(C(=O)Nc1cccc(C(F)(F)F)c1)=C(/N)N1CCOCC1 | > 100 µM (inactive) |
| COc1ccc(C(OCC2OC(n3ccc(Oc4c(F)c(F)c(F)c(F)c4F)nc3=O)CC2OP(OCCC#N)N(C(C)C)C(C)C)(c2ccccc2)c2ccc(OC)cc2)cc1 (stereo not drawn) | > 100 µM (inactive) |
| COC(=O)C(Cc1c[nH]c2ccccc12)NC(=O)C(Cc1c[nH]cn1)NC(=O)C1CCC(=O)N1C(=O)OCc1ccccc1 (stereo not drawn) | > 100 µM (inactive) |
| Cc1ccc(NC(=O)CC(=O)n2nc(C)c(/N=N/c3ccc(S(=O)(=O)CCOS(=O)(=O)O)cc3)c2C)cc1 | > 100 µM (inactive) |
| COC(CN(C)C(=S)Nc1cccc2ccccc12)OC | > 10 µM (inactive) |
| Oc1ccc(O)c(Sc2nnc(CCCCCCCCc3nnc(Sc4cc(O)ccc4O)o3)o2)c1 | > 100 µM (inactive) |
| Fc1cccc2nc(-c3ccccc3)cc(OCc3ccccc3)c12 | > 100 µM (inactive) |
| Cc1cc2c(O)c(c1)CN(CC(=O)O)Cc1cc(C)cc(c1O)CN(CC(=O)O)Cc1cc(C)cc(c1O)CN(CC(=O)O)C2 | > 100 µM (inactive) |
| N#Cc1nc2ccccc2nc1N1CCN(c2ccc([N+](=O)[O-])cc2)CC1 | > 100 µM (inactive) |
| Nc1nc(NNc2ccc(Cl)c(Cl)c2)cc(=O)[nH]1 | 34 µM (inactive) |
| Clc1ccc(/N=c2\oc3ccccc3cc2-c2nc3ccccc3[nH]2)c(Cl)c1 | > 100 µM (inactive) |
| O=C1NN(Cc2ccccc2)C(=O)N2CCC[C@@H]12 | > 100 µM (inactive) |
| O=c1[nH]c2ccc(O)cc2o1 | > 100 µM (inactive) |
| [N-]=[N+]=Nc1c([N+](=O)[O-])c(Cl)nc2ccccc12 | 1.91 µM (inactive) |
| NNc1nncn1N | > 100 µM (inactive) |
| CC1(C)OC[C@@H](O)[C@H](C#N)CO1 | > 100 µM (inactive) |
| CC(C)=NNc1cnnc2ccc([N+](=O)[O-])cc12 | > 100 µM (inactive) |
| Cc1cc(C)n2nc3nc(N)c(C#N)c(-c4ccccc4)c3c2n1 | > 100 µM (inactive) |
| CC12CCC(C(=O)OC1=O)C2(C)C (stereo not drawn) | > 100 µM (inactive) |
| CCOC(=O)c1cc(Sc2ccc(N)c(C(=O)OCC)c2)ccc1N | 11.4 µM (inactive) |
| CC(C)(Cl)C(Cl)CC/C(CBr)=C(\Cl)CBr (stereo not drawn) | 3.15 µM (inactive) |
| C=C(Cl)[C@@](Cl)(CBr)CC[C@@H](Br)C(C)(C)Cl | 0.555 µM (active) |
| CCOC(=O)/C=C(\C(=O)OCC)n1ccc(=O)[nH]c1=O | 16.9 µM (inactive) |
| O=c1ccn(CC2(CO)CCCC2)c(=O)[nH]1 | > 100 µM (inactive) |
| Cc1cc2cc3c(cc2c(-c2ccc(N)cc2)n1)OCO3 | 40.7 µM (inactive) |
| CC1=NN(c2ccccc2)C2(C1)C(Cl)C(=O)N2c1nc2ccccc2s1 (stereo not drawn) | 37.1 µM (inactive) |
| Cc1cc2c(cc1C)[n+]([O-])c(C(F)(F)F)c(C(=O)c1ccccc1)[n+]2[O-] | 2.09 µM (inactive) |
| CC(=O)OCC1OC(OC2CC3C(C)(C)C(=O)CC[C@]3(C)C3CC[C@]45C[C@]4(CCC5[C@@H](C)CC(O)C(O)C(C)(C)O)[C@]23C)C(O)C(O)C1O (stereo partly drawn) | 9.82 µM (inactive) |
